- tested_system: human progesterone receptor B (Homo sapiens)
- Sequence (P06401 1-933): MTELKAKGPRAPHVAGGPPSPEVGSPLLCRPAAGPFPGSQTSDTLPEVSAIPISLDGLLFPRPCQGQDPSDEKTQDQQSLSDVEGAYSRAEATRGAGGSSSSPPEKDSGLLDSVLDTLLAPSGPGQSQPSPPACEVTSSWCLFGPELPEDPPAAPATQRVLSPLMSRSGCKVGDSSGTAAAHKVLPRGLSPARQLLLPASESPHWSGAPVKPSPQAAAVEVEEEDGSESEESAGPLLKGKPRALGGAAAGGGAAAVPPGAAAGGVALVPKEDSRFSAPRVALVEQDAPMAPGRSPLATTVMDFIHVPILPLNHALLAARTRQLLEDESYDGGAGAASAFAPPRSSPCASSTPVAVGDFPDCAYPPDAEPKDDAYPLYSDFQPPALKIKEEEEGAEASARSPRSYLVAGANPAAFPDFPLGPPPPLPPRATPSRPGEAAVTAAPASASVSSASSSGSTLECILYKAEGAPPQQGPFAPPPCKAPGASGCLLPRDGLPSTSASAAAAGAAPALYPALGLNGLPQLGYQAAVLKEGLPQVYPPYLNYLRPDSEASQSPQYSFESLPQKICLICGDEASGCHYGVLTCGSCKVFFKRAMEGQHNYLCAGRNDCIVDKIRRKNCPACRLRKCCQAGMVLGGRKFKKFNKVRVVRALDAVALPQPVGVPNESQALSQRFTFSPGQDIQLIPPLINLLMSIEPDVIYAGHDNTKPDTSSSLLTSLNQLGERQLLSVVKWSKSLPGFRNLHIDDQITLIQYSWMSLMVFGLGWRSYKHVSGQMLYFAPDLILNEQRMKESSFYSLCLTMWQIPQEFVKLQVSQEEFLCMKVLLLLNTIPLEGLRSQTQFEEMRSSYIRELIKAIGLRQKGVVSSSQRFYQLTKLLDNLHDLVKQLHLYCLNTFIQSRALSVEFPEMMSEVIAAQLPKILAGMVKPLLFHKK
- experiment_notes: Progesterone receptor antagonistic effect in stably transfected SK-N-MC cells, MTV-LUC reporter (PR-B)
- cond: antagonism of 0.1 nmol/l promegestone, luciferase reporter, 24 hours
pIC50: −log10 of the molar value.

[
  {
    "molecule": "C[C@]12C[C@H](c3ccc(CNCCc4ccccc4)cc3)C3=C4CCC(=O)C=C4CC[C@H]3[C@@H]1CC[C@@]2(O)C(F)(F)C(F)(F)F [Example 9]",
    "tested_system": "human progesterone receptor B (Homo sapiens)",
    "pIC50": 9.01
  },
  {
    "molecule": "C[C@]12C[C@H](c3ccc(CN4CCCNCC4)cc3)C3=C4CCC(=O)C=C4CCC3C1CC[C@@]2(O)C(F)(F)C(F)(F)F (some centres unmarked) [Example 16]",
    "tested_system": "human progesterone receptor B (Homo sapiens)",
    "pIC50": 8.55
  },
  {
    "molecule": "CC(=O)N1CCCN(Cc2ccc([C@H]3C[C@@]4(C)C(CC[C@@]4(O)C(F)(F)C(F)(F)F)C4CCC5=CC(=O)CCC5=C43)cc2)CC1 (some centres unmarked) [Example 17]",
    "tested_system": "human progesterone receptor B (Homo sapiens)",
    "pIC50": 9.24
  },
  {
    "molecule": "C[C@]12C[C@H](c3ccc(CN4CCC(C(=O)O)CC4)cc3)C3=C4CCC(=O)C=C4CC[C@H]3[C@@H]1CC[C@@]2(O)C(F)(F)C(F)(F)F [Example 15]",
    "tested_system": "human progesterone receptor B (Homo sapiens)",
    "pIC50": 7.22
  },
  {
    "molecule": "CN1CCN(Cc2ccc([C@H]3C[C@@]4(C)[C@@H](CC[C@@]4(O)C(F)(F)C(F)(F)F)[C@@H]4CCC5=CC(=O)CCC5=C43)cc2)CC1 [Example 2]",
    "tested_system": "human progesterone receptor B (Homo sapiens)",
    "pIC50": 8.55
  }
]
